- measurement target: T1, human ApoC3 (huApoC3), native protein purified from human serum (human, UniProt P02656 21-99)
- T1 construct: Athens Research and Technology; randomly biotinylated in some assays; also called Apolipoprotein C3
- T1 sequence (P02656 21-99): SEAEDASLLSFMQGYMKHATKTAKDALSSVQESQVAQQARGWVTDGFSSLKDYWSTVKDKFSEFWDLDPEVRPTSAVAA
- assay explanation: SPR Biacore, huApoC3 on chip, scFv-Fc as analyte
quantity kind: kon (M⁻¹ s⁻¹)
Provide the reading as a plain figure in M⁻¹ s⁻¹.

Field: example entries. Status: answers known.
{"columns": ["binder", "assay value"],
 "data": [
  ["8B7 scFv-Fc (Fc fusion, scFv-Fc format) VH: EVQVQESGPGLVKPSQTLSLTCTVSGASITNRRYAWTWIRQPPGKGLEWMGVIVYDGNTHVSPSLRSRTSISRDTSKNQFSLQLSSLTPEDTAVYYCARVLLLRDPLSLDYWGQGTQVTVSS VL: SSALTQPPSMSGTLGKTLTISCAGTSSDIGAYNFVSWYQQLPGTAPKLLIYDIDKRASGIPDRFSGSKSGNTASLSISGLQSEDEADYYCAAYGSRDNVVFGGGTHLTVL", "2.81e+06"],
  ["7A9 scFv-Fc (Fc fusion, scFv-Fc format) VH: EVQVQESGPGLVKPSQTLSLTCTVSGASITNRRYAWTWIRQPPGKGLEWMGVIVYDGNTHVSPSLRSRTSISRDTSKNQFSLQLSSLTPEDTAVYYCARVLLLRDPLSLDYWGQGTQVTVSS VL: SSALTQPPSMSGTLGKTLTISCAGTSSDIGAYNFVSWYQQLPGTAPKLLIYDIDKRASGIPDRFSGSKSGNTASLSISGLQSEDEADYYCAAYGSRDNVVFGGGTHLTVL", "2.59e+06"],
  ["10B6 scFv-Fc (Fc fusion, scFv-Fc format) VH: EVQLVESGGGLVQPGGSLRLSCAASGFTFSSYAMRWVRQAPGKGLEWISSINIDGGSTRYTDSVQGRFTVSRDNAKNTLYLQMNNLKPEDTGIYYCTIQGYIYWGQGTQVTVSS VL: ATMLTQSPGSLSIVPGESASISCKASQSLVHSNGVIYFYWLLQKPGQSPQRLIYQVSNRDSGVPDRFTGSGSGTDFTLKISGVKAEDAGVYYCAQGTYYPHSFGSGTRLQIK", 171000],
  ["8H4 scFv-Fc (Fc fusion, scFv-Fc format) VH: ELQLVESGGGLVQPGRSLRLSCAASGFTFSSYSMRWVRQTPGKGLEWVTSINSDGGSTKYSDSVKGRFTISRDNAKNTLYLQMNNVKPEDTAIYYCAIQGYTDWGQGTQVTVSS VL: DVVLTQTPGSLSVVPGESASISCKVSQSLVHSDGKTYLYWLLQKPGQSPQRLIYQVSNRDSGVPDRFTGSGSGTDFTLKISGVKAEDAGVYYCAQGTYNPYTFGSGTRLEIK", 187000]
]}

The record that follows has no kon shown yet.
Note kon for the binder shown: 6A6 scFv-Fc (Fc fusion, scFv-Fc format) VH: EVQLVESGGGLVQPGGSLRLSCAASGFTFSSYAGRWVRQVPGKGLEWVSSINAGGGSTSYADSVKGRFTISRDNAKNTLYLQMNSLKPEDTAKYYCTQNSYRYWGQGTRVAVSS VL: DVVLTQTPGSLSVVPGESASISCKASQSLIHTDGKTYLYWLLQKPGQRPQLLIYQVSSHESGVPDRFTGSGSGTDFTLKISGVKAEDAGVYYCAQATYNPRTFGQGTKLEIK
1.19e+06
